Molecular target: T1, cynomolgus monkey GPVI extracellular domain fused at its C-terminus to human IgG1 Fc (GPVI-Fc) (cynomolgus monkey; human)
T1 construct: also called cyGPVI-2; cyGPVI
Assay: Competition ELISA (MSD): cynomolgus GPVI-Fc preincubated with Fab, then on coated CRP-XL (competitor)
endpoint_name: Max. inhibition at 200 nM Fab [%] (%)

binder: Fab #4 comprising a modified heavy chain constant region (Fab, V domains shown, Human Fab from the Ylanthia library; produced in HKB11 cells; also called Fab #4 mod; HC) VH: QVQLVQSGAEVKKPGASVKVSCKASGGAFTSSYMHWVRQAPGQGLEWMGIIEPTGASTLYAQRFQGRVTMTRDTSTSTVYMELSSLRSEDTAVYYCARTGIALPLGFDLWGQGTLVTVSS VL: QSVLTQPPSVSAAPGQKVTISCSGSSSNIGNNYVSWYQQLPGTAPKLLIYDNNKRPSGIPDRFSGSKSGTSATLGITGLQTEDEADYYCAAWSTRFRWVFGGGTKLTVLG
readout_number: 51
